# assay target: human adenosine A2A receptor (Homo sapiens)
# Construct: expressed in transfected cells; host or cells: CHO-K1 cells with cAMP inducible beta-galactosidase reporter gene
# Sequence (P29274 whole entry): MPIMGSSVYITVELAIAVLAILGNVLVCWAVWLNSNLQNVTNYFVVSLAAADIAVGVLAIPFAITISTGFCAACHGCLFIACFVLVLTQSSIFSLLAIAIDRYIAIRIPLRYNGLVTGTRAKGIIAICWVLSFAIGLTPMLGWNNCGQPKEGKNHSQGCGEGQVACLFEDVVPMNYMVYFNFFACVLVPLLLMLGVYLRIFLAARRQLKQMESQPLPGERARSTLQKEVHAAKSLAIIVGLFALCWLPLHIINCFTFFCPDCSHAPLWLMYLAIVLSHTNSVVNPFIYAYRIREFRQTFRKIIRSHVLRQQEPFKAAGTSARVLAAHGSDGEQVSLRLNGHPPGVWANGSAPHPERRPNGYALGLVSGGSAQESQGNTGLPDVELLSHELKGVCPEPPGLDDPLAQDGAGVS
# procedure summary: Adenosine A2A Receptor Functional Assay (A2AGAL2)
# Type: cell-based
# run conditions: selectivity ratio of A1Gal2 value to A2AGal2 value
measured property: A1/A2A

Solved entries:
CC(C)CCN1CCN(c2ccc(-c3cccc4c3-c3nc(N)nc(-c5ccc(F)cc5)c3C4=O)cn2)CC1: 55.5556
CCOC(=O)Cn1cc(-c2cccc3c2-c2nc(N)nc(-c4ccc(F)cc4)c2C3=O)cn1: 53.6847
Cc1c(-c2cccc3c2-c2nc(N)nc(-c4ccccc4)c2C3=O)cnn1-c1ccccc1: 51.1765
N#Cc1ccc(-c2cccc3c2-c2nc(N)nc(-c4ccccc4)c2C3=O)s1: 92.3077

I. Nc1nc(-c2ccc(F)cc2)c2c(n1)-c1c(cccc1-c1cnn(CCN3CCOCC3)c1)C2=O
II. Cc1nc(-c2ccc(C(F)(F)F)cc2)sc1-c1cccc2c1-c1nc(N)nc(-c3ccc(F)cc3)c1C2=O
Q) Given I and II , report the one with the higher recorded A1/A2A. # reply format: chosen label
A) I
